molecular target: Androgen Receptor (Homo sapiens, UniProt P10275); construct: endogenous in cells; host or cells: VCaP cells; assay: Androgen Receptor ELISA assay (PathScan AR ELISA) in VCaP cells: AR degradation, Dmax and DC50; format: cell-based; settings: VCaP cells; Table 36; read-out: VCaP DC50
Sequence (P10275 whole entry): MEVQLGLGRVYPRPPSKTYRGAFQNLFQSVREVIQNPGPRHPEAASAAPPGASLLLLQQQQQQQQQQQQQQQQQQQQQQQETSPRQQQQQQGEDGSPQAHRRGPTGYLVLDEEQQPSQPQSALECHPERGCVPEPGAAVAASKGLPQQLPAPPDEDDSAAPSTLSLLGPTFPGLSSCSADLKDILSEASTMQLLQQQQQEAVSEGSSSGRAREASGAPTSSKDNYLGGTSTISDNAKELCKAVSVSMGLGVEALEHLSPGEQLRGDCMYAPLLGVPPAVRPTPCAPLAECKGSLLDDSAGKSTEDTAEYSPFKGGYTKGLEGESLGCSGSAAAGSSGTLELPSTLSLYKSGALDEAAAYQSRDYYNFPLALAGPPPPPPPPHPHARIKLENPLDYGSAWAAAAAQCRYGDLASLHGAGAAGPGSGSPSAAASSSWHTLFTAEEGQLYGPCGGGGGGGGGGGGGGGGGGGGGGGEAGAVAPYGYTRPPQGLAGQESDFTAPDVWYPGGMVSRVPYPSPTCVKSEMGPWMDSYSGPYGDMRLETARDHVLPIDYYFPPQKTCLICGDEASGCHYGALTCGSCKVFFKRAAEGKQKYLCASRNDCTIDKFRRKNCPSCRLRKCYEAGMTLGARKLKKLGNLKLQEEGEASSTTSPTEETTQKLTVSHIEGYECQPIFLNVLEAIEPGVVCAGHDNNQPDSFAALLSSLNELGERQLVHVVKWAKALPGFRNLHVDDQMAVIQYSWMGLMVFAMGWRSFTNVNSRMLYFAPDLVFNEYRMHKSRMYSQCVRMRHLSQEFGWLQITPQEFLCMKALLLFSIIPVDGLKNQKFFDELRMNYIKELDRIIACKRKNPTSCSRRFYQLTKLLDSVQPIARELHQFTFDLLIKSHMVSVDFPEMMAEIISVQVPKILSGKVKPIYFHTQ
Result type: DC50

Quick request: DC50 for each listed item, please.
1. Cc1ncsc1-c1ccc([C@H](C)NC(=O)[C@@H]2C[C@@H](O)CN2C(=O)[C@@H](C(C)C)N2Cc3ccc(N4CCN(CCCc5ccc(C(=O)N[C@H]6C(C)(C)[C@H](Oc7ccc(C#N)c(Cl)c7)C6(C)C)cc5)CC4)cc3C2=O)cc1 [Example 777]
2. Cc1ncsc1-c1ccc([C@H](C)NC(=O)C2C[C@@H](O)CN2C(=O)[C@@H](NC(=O)COCCN2CCCN(c3ccc(C(=O)N[C@H]4C(C)(C)[C@H](Oc5ccc(C#N)c(Cl)c5)C4(C)C)cn3)CC2)C(C)(C)C)cc1 (stereo partly shown) [Example 782]
3. Cc1ncsc1-c1ccc([C@H](C)NC(=O)[C@@H]2C[C@@H](O)CN2C(=O)[C@@H](NC(=O)CN[C@H]2C[C@@H](N3CCN(c4ccc(C(=O)N[C@H]5C(C)(C)[C@H](Oc6ccc(C#N)c(Cl)c6)C5(C)C)cn4)CC3)C2)C(C)(C)C)cc1 [Example 861]

-- reply
1. > 501 nM
2. < 50 nM
3. < 50 nM

-- ask I have this compound here, Cc1nc(O[C@H]2C(C)(C)[C@H](NC(=O)c3ccc(N4CCN(CCOCC(=O)N[C@H](C(=O)N5C[C@H](O)C[C@H]5C(=O)N[C@@H](C)c5ccc(-c6scnc6C)cc5)C(C)(C)C)CC4)nc3)C2(C)C)ccc1C#N [Example 682] , and I need its recorded DC50.
-- reply < 50 nM
